System: c-Abl (mouse)
Assay Remarks: phosphorylation enrichment, bacterial display (enrichment ratio); higher = better substrate or ligand; peptides without Tyr show the background
Entries get a class label from measured phosphorylation enrichment. See ranges: low = under 0.6, middle = from 0.6 up to 0.8, high = 0.8 and over

See these solved cases before continuing.
[[record]]
residue_sequence = "VEKGSYSALLA [ABCC2_Y845]"
assigned_category = "low"

[[record]]
residue_sequence = "DCLASYLDKVR [KRT10_Y160_R156C]"
assigned_category = "middle"

[[record]]
residue_sequence = "VFSIDYFRVGG [NTRK2_Y706_T704I_YF]"
assigned_category = "high"

[[record]]
residue_sequence = "ETKKQYNSFTF [TMED3_Y85_D86N_YF]"
assigned_category = "low"

[[record]]
residue_sequence = "MRTMGYMPREM [CABP5_Y62_T65R]"
assigned_category = "low"


Input AVLSLYASGCT [ACTA2_Y145_R149C] ; output its category high

Would you mind sorting EAESWYQTKFE [KRT75_Y342_YF] into the appropriate category? middle

* * *

Measured Target: SHP2-C SH2;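 further: peptide library displayed on the E. coli surface as eCPX fusions, selected cells deep-sequenced, score is each peptide's frequency after selection divided by its frequency in the input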
Assay Remarks: SH2 binding enrichment of the phosphorylated peptide, bacterial display (enrichment ratio); higher = better substrate or ligand; peptides without Tyr show the background
Attribute: SH2 binding enrichment
Write the number on its own, no unit after it.

As a guide, the following entries are already answered.
[[record]]
residue_sequence = "CSSPTYRDCLQ [LARGE2_Y682_R677C]"
number = 1.15

[[record]]
residue_sequence = "LGKGSYAKVKS [TSSK2_Y23]"
number = 1.5

[[record]]
residue_sequence = "AFRHGYFDEEM [PLEC_Y2971_R2969H_YF]"
number = 0.614

[[record]]
residue_sequence = "GMTLSYLFREP [NDUFS8_Y74]"
number = 1.4

[[record]]
residue_sequence = "CETMEYLESKQ [BTK_Y511_A508T]"
number = 0.555

[[record]]
residue_sequence = "LEKISYVYMKR [SSX7_Y48]"
number = 3.38


Item HYPDVYAREQL [ALX3_Y181] with SHP2-C SH2 - SH2 binding enrichment? 0.471

* * *

Test system: c-Src
Assay Remarks: phosphorylation enrichment, bacterial display (enrichment ratio); higher = better substrate or ligand; peptides without Tyr show the background
Classify by measured phosphorylation enrichment: yes (1) if it is equal to or exceeds 0.4, no (0) if it is smaller.

Example entries begin here.
[[record]]
residue_sequence = "RKEAQYMLENE [SLC16A6_Y224]"
assigned_category = "yes (1)"

[[record]]
residue_sequence = "FHIDHYLGKEM [G6PD_Y202_R198H_YF]"
assigned_category = "no (0)"

[[record]]
residue_sequence = "NFDLDYDSVQP [MYC_Y16_YF]"
assigned_category = "yes (1)"

[[record]]
residue_sequence = "NTEGGYRCICA [CRELD1_Y328]"
assigned_category = "yes (1)"

[[record]]
residue_sequence = "EVEPRYVVLYD [ERCC4_Y577]"
assigned_category = "yes (1)"

[[record]]
residue_sequence = "QDDTVYMGKVT [DCTN1_Y1244]"
assigned_category = "yes (1)"

[[record]]
residue_sequence = "VDDEIYYFRKP [PBRM1_Y1289]"
assigned_category = "yes (1)"

[[record]]
residue_sequence = "NFRTTYVNANE [KCNH2_Y475]"
assigned_category = "yes (1)"

[[record]]
residue_sequence = "GSRGKYSSGFR [ATM_Y332]"
assigned_category = "yes (1)"

[[record]]
residue_sequence = "DAVAVYHGKIS [SH2D1A_Y7]"
assigned_category = "no (0)"


Reported phosphorylation enrichment reaches at least 0.4 for NFHRGYHLQVL [CD200R1L_Y138] ? no (0)

Given the entry LGMSQYFRLFN [CPT2_Y217_D213G] , answer whether its phosphorylation enrichment meets or surpasses 0.4. no (0)

Entry EIIPFYGMSTF [FNDC3B_Y175_YF] : is its phosphorylation enrichment no less than 0.4? yes (1)
